Listing: GI50 of selected compounds
system: UACC-257 melanoma; test: NCI tumour cell line growth inhibition, 48 h
Assay Readout: GI50

{"columns": ["Compound", "Experimental Value"],
 "data": [
  ["CN(C)CCNC(=O)c1ccc2oc3cc4ccccc4c(=O)n3c2c1", "23.9 µM"],
  ["C=CC(=O)N1CC[C@H](n2nc(C#Cc3cc(OC)cc(OC)c3)c3c(N)ncnc32)C1", "10.8 µM"],
  ["CC(C)Cc1ccc(C(C)C(=O)NCc2ccc(Cn3c(=O)sn(CCCI)c3=O)cc2)cc1 (configuration not stated)", "1.28 µM"],
  ["Cc1sc2c(c1C)C(c1ccc(Cl)cc1)=N[C@@H](CC(=O)NCCCN1CCN(C)CC1)c1nnc(C)n1-2", "3.26 µM"],
  ["C=CC(=O)Nc1cccc(Oc2nc(Nc3ccc(N4CCN(C)CC4)cc3OC)ncc2Cl)c1", "1.62 µM"],
  ["COc1cc(CCC(=O)NC[C@@H](O)c2ccccc2)ccc1O", "> 100 µM"],
  ["CC(=O)OCCCC#CC#Cc1cccc(=O)o1", "23.8 µM"]
]}

----------
tested on: KM12 colon; test: NCI tumour cell line growth inhibition, 48 h
Listing: TGI of selected compounds

{"columns": ["Compound", "TGI"],
 "data": [
  ["COC(=O)[C@@H](C)C[C@H](Cc1ccccc1)NC(=O)c1csc([C@@H](C[C@H](C(C)C)N(C)C(=O)[C@@H](NC(=O)[C@H]2CCCN2C)C2CC2)OC(C)=O)n1", "> 25 µM"],
  ["Cc1ccccc1C(C(=O)NC1CCCCC1)N(C(=O)CNc1ncccc1F)c1cccc(F)c1 (stereo not given)", "> 100 µM"],
  ["O=c1c(-c2ccccc2)c(SCCN2CCOCC2)n(-c2ccccc2)c(=S)n1-c1ccccc1", "> 100 µM"],
  ["O=c1[nH]c(=O)n(CCOc2ccc(Cl)cc2)cc1Nc1ccccc1", "> 100 µM"],
  ["O=C(CN=C(CN(c1ccccc1)c1ccccc1)Oc1ccc(Cl)cc1Cl)n1ccnc1", "> 100 µM"]
]}

----------
system: UO-31 renal; assay: NCI tumour cell line growth inhibition, 48 h
Kind request: treat 50 µM as inclusive, so TGI at 50 µM or higher is yes, anything lower is no.

{"columns": ["Compound", "Experimental System", "Assigned Class"],
 "data": [
  ["COc1cc(O)c2c(c1)C(=O)C1=C(C2=O)C(O)C[C@@](C)(O)C1 (stereo not given in full)", "UO-31 renal", "no"],
  ["N#CC1=C(N)Oc2c(sc3c(Br)cccc23)C1c1ccc(Cl)cc1 (stereo not given)", "UO-31 renal", "no"],
  ["N#CCc1nnc(N)o1", "UO-31 renal", "yes"],
  ["O=C1C(c2ccccc2)=C(c2ccccc2)C(c2ccc(Sc3ccc(C4=C(c5ccccc5)C(=O)C(c5ccccc5)=C4c4ccccc4)cc3)cc2)=C1c1ccccc1", "UO-31 renal", "yes"],
  ["O=C([CH-]C(=O)c1ccccc1)c1ccccc1.O=C([CH-]C(=O)c1ccccc1)c1ccccc1.O=C([CH-]C(=O)c1ccccc1)c1ccccc1.[Cl-].[Hf+4]", "UO-31 renal", "yes"],
  ["CCOC(=O)C1(N)CC1", "UO-31 renal", "yes"],
  ["C#CCOCn1cc(C)c(=O)[nH]c1=O", "UO-31 renal", "yes"],
  ["Cn1cc(C2=C(c3cn(CCCCCO)c4ccccc34)C(=O)NC2=O)c2ccccc21", "UO-31 renal", "no"],
  ["OCC1CCCC1O (stereo not given)", "UO-31 renal", "yes"]
]}
